These entries and their values trace back to PubChem BioAssay (NCI).

# Test system: OVCAR-3 ovarian
# assay: NCI-60 one-dose screen, 48 h (100 = growth as untreated, 0 = no growth, -100 = all killed)
# condition parameters: 10 µM unless noted
Compounds without any hit were thinned out: in the full panel of roughly 83,000, 20% have a hit.
attribute measured: growth (%)
Report only the number, with the unit % understood.

According to the records, this molecule COC(=O)CCC1=C(C)c2cc3[n-]c(cc4nc(cc5[n-]c(cc1n2)c(CCC(=O)OC)c5C)C=C4C)cc3C.[Cd+2] displays growth of -58.1

Field growth (entry CC(C)CCC1(CCCl)C(=O)NC(=O)NC1=O ) reads 116

growth reading for Brc1ccc2c(c1)c(-c1nc(-c3c[nH]c4ncccc34)cs1)cn2CCN1CCCCC1 : 85.1

Others:
What the record says about CN1CCC(O)(c2ccc(F)cc2)C(C(=O)c2ccc(F)cc2)C1 (stereo not drawn) : growth is 111

growth in this record for Clc1cc(N2CC2)nc(N2CC2)n1 : 107

Item: O=C1CNC(c2ccccc2)c2cc(Cl)ccc2N1 (stereo not drawn) | growth: 98

// field: growth; key: CC(=O)O[C@H](C[C@H](C(C)C)N(C)C(=O)[C@@H](NC(=O)[C@H]1CCCN1C)C(C)C)c1nc(C(=O)N[C@@H](Cc2ccccc2)C[C@H](C)C(=O)O)c(C)s1 ; value = -22.9

Briefly, growth measured for CCOC(=O)[C@@H](C)C[C@H](Cc1ccccc1)NC(=O)c1csc([C@@H](C[C@H](C(C)C)N(C)C(=O)[C@@H](NC(=O)[C@H]2CCCCN2C)C(C)(C)CC)OC(C)=O)n1 : 2.01

So, O=P1(NCCCl)OCCCN1CCCl (stereo not drawn) ? Its growth was 107

growth reported for this molecule CCn1cnc2c(Nc3cccc(Cl)c3)nc(N[C@@H]3CCCC[C@@H]3N)nc21 : 0.926

Per the record, O=[N+]([O-])CC(O)C(Cl)(Cl)Cl (stereo not drawn) has growth of 116

# growth of O=[N+]([O-])c1cc([N+](=O)[O-])c(Nn2c3ccccc3c3ccccc32)c([N+](=O)[O-])c1 = 12.4

// recorded growth for CC(=O)C(c1c(O)c2ccccc2oc1=O)c1cc(=O)oc2c1ccc1ccccc12 (stereo not drawn) : 110

---

# Test system: DU-145 prostate
# assay: NCI-60 one-dose screen, 48 h
# condition parameters: 10 µM unless noted
About 83,000 compounds went through this panel and 20% of them were active in at least one assay; those are over-represented in the sample as a whole. Calls of active or inactive are those of the source. Rule for the calls: active = growth percent below 10; inactive = the rest.
Assign a class; possible classes are active, inactive

-- ask Outcome? Cc1ccc(N2COOC3(OOC2)C2CC4CC(C2)CC3C4)cc1
-- reply inactive

-- ask # fetch the recorded call for COc1ccc(NC([Se])=NC23CC4CC(CC(C4)C2)C3)cc1 here
-- reply active

-- ask Hi team, can someone confirm the assay call for Cc1ccc2c(C(C[N+](=O)[O-])c3cccs3)c(-c3ccccc3)[nH]c2c1 (stereo not drawn) ?
-- reply inactive

-- ask Please share the test call associated with COC(=O)CCc1c[nH]c2ccc(N(CCCl)CCCl)cc12 .
-- reply inactive

Others:
-- ask So what was the verdict on COC(=O)[C@@H](C)C[C@H](Cc1ccc(F)cc1)NC(=O)c1csc([C@@H](C[C@H](C(C)C)N(C)C(=O)[C@@H](NC(=O)[C@H]2CCCCN2C)C2CC2)OC(C)=O)n1 in this test?
-- reply inactive

-- ask What did the test return for ClCCN(CCCl)c1ccc(OCc2ccccc2)cc1 ?
-- reply inactive

-- ask Identify the outcome logged in this assay for the compound shown: COC(=O)[C@@H](C)C[C@H](Cc1ccccc1)NC(=O)c1nc([C@@H](C[C@H](C(C)C)N(C)C(=O)[C@@H](NC(=O)[C@H]2CCCCN2C)C(C)C)OC(C)=O)sc1C
-- reply active
